Assay: in vivo
Details: mouse, ip, ddy male mice, intraperitoneal, read-out: LD50 i.p.
LD50 at 24 h: recorded values
Lab book: enter the figure in mg/kg, no units written.

IN: What does the data say about its LD50 at 24 h? Entry: CC(C)CCc1ccc(O)cc1O [drawing 17]
OUT: 269

IN: State the recorded LD50 at 24 h for this entry: CCCCCCc1ccc(O)cc1O [drawing 16]
OUT: 335

* * *

Tested on: tyrosinase
Assay: Measurement of Tyrosine Hydroxylation Activity (formation of dopa from tyrosine)
Type: biochemical
Conditions: L-tyrosine 1×10^-4 M; 200 units mushroom tyrosinase; absorbance at 280 nm; control 1.83
Activity (tyrosine hydroxylation activity) reference

1. CC(C)CCc1ccc(O)cc1O : 0.00 nmol dopa/min/mg of protein
2. Oc1ccc(O)cc1 [hydroquinone, reference compound] : 0.00 nmol dopa/min/mg of protein
3. CCCCCCc1ccc(O)cc1O : 0.00 nmol dopa/min/mg of protein
4. CCc1ccc(O)cc1O [drawing 2] : 0.00 nmol dopa/min/mg of protein
5. CCCCc1ccc(O)cc1O : 0.00 nmol dopa/min/mg of protein
6. CCCCCCCCc1ccc(O)cc1O : 0.00 nmol dopa/min/mg of protein
7. Cc1ccc(O)cc1O [Comparative Experiment 1, reference compound] : 1.78 nmol dopa/min/mg of protein

IN: Report Activity (tyrosine hydroxylation activity) for CCCCCCCCCCCCc1ccc(O)cc1O please.
OUT: 0.33 nmol dopa/min/mg of protein

These data points were gathered from patent US4959393A.
